test system: IGROV1 complex spheroids (HUVEC, MSC), viability % test/control; assay: Anticancer human tumor IGROV1 cell line growth inhibition [GQUAD]; details: second compound 1 µM; first compound 0.1 µM; active = viability on the fitted dose curve at most 10% of control; inactive = the rest;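 also: spheroids exposed to compounds for 7 days before readout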
Select the matching outcome among active, inactive

Req: Fill in: this test's call for COc1cccc2c1C(=O)c1c(O)c3c(c(O)c1C2=O)CC(O)(C(=O)CO)CC3OC1CC(N)C(O)C(C)O1 (stereo unspecified) + Cc1[nH]c2ccc(F)cc2c1-c1nc2c3cccnc3c3ncccc3c2[nH]1 is ___
Resp: active

Req: Fill in: this test's call for COc1cccc2c1C(=O)c1c(O)c3c(c(O)c1C2=O)CC(O)(C(=O)CO)CC3OC1CC(N)C(O)C(C)O1 (stereo unspecified) + Cc1cnc(CNC(=O)c2c(=O)c3ccc(N4CCCN(C)CC4)nc3n3c2sc2ccccc23)cn1 is ___
Resp: active

Req: Fill in: this test's call for CCCS(=O)(=O)Nc1ccc(F)c(C(=O)c2c[nH]c3ncc(-c4ccc(Cl)cc4)cc23)c1F + Cc1[nH]c2ccc(F)cc2c1-c1nc2c3cccnc3c3ncccc3c2[nH]1 is ___
Resp: active

Req: Fill in: this test's call for CCCS(=O)(=O)Nc1ccc(F)c(C(=O)c2c[nH]c3ncc(-c4ccc(Cl)cc4)cc23)c1F + CN(C)c1ccc(Nc2c3ccc(NC(=O)CCN4CCCC4)cc3nc3cc(NC(=O)CCN4CCCC4)ccc23)cc1 is ___
Resp: inactive

Req: Fill in: this test's call for CC1COCCN1c1cc(C2(O)CC3CCC(C2)O3)c2cnn(-c3ccn[nH]3)c2n1 (stereo unspecified) + CN(C)c1ccc(Nc2c3ccc(NC(=O)CCN4CCCC4)cc3nc3cc(NC(=O)CCN4CCCC4)ccc23)cc1 is ___
Resp: inactive

Req: Fill in: this test's call for O=C(NO)c1cnc(N2CCN(S(=O)(=O)c3ccc4ccccc4c3)CC2)nc1 + Cc1[nH]c2ccc(F)cc2c1-c1nc2c3cccnc3c3ncccc3c2[nH]1 is ___
Resp: active

Req: Fill in: this test's call for CC(C)(O)C1CCC(Nc2ccc3ncc(-c4cccc(C(F)(F)F)c4)n3n2)CC1 (stereo unspecified) + Cc1cnc(CNC(=O)c2c(=O)c3ccc(N4CCCN(C)CC4)nc3n3c2sc2ccccc23)cn1 is ___
Resp: inactive

Req: Fill in: this test's call for COc1cc(C2c3cc4c(cc3C(OC3OC5COC(C)OC5C(O)C3O)C3COC(=O)C23)OCO4)cc(OC)c1O (stereo unspecified) + Cc1[nH]c2ccc(F)cc2c1-c1nc2c3cccnc3c3ncccc3c2[nH]1 is ___
Resp: active

Req: Fill in: this test's call for C#Cc1c(F)ccc2cc(O)cc(-c3ncc4c(N5CC6CCC(C5)N6)nc(OCC56CCCN5CC(F)C6)nc4c3F)c12 (stereo unspecified) + CN(C)c1ccc(Nc2c3ccc(NC(=O)CCN4CCCC4)cc3nc3cc(NC(=O)CCN4CCCC4)ccc23)cc1 is ___
Resp: inactive

Req: Fill in: this test's call for CC(C)n1c(=O)n(C)c2cnc3cc(F)c(-c4ccc(OCCCN5CCCCC5)nc4)cc3c21 + CN(C)c1ccc(Nc2c3ccc(NC(=O)CCN4CCCC4)cc3nc3cc(NC(=O)CCN4CCCC4)ccc23)cc1 is ___
Resp: inactive

Req: Fill in: this test's call for COc1ccc([C@@H](O)c2cc(-c3ncnc4cc(N5CCOCC5)ccc34)c(F)cc2Cl)nn1 + Cc1[nH]c2ccc(F)cc2c1-c1nc2c3cccnc3c3ncccc3c2[nH]1 is ___
Resp: active

Req: Fill in: this test's call for C#Cc1c(F)ccc2cc(O)cc(-c3ncc4c(N5CC6CCC(C5)N6)nc(OCC56CCCN5CC(F)C6)nc4c3F)c12 (stereo unspecified) + Cc1cnc(CNC(=O)c2c(=O)c3ccc(N4CCCN(C)CC4)nc3n3c2sc2ccccc23)cn1 is ___
Resp: inactive

Req: Fill in: this test's call for CC1COCCN1c1cc(C2(O)CC3CCC(C2)O3)c2cnn(-c3ccn[nH]3)c2n1 (stereo unspecified) + Cc1[nH]c2ccc(F)cc2c1-c1nc2c3cccnc3c3ncccc3c2[nH]1 is ___
Resp: active

Req: Fill in: this test's call for CC(C)(O)C1CCC(Nc2ccc3ncc(-c4cccc(C(F)(F)F)c4)n3n2)CC1 (stereo unspecified) + Cc1[nH]c2ccc(F)cc2c1-c1nc2c3cccnc3c3ncccc3c2[nH]1 is ___
Resp: active

Req: Fill in: this test's call for C=CC(=O)N1CCN(c2nc(=O)n(-c3c(C)ccnc3C(C)C)c3nc(-c4c(O)cccc4F)c(F)cc23)C(C)C1 (stereo unspecified) + Cc1cnc(CNC(=O)c2c(=O)c3ccc(N4CCCN(C)CC4)nc3n3c2sc2ccccc23)cn1 is ___
Resp: inactive

Req: Fill in: this test's call for CC1COCCN1c1cc(-c2ccnn2C)c2ccnc(-c3ccn[nH]3)c2n1 (stereo unspecified) + Cc1cnc(CNC(=O)c2c(=O)c3ccc(N4CCCN(C)CC4)nc3n3c2sc2ccccc23)cn1 is ___
Resp: active

Req: Fill in: this test's call for COc1ncnc(C2CC2)c1-c1ncc2cnn(Cc3ccc(-c4nc(C(F)(F)F)cn4C(C)C)cc3)c2n1 + CN(C)c1ccc(Nc2c3ccc(NC(=O)CCN4CCCC4)cc3nc3cc(NC(=O)CCN4CCCC4)ccc23)cc1 is ___
Resp: inactive

Req: Fill in: this test's call for Nc1ccn(C2OC(CO)C(O)C2(F)F)c(=O)n1 (stereo unspecified) + CN(C)c1ccc(Nc2c3ccc(NC(=O)CCN4CCCC4)cc3nc3cc(NC(=O)CCN4CCCC4)ccc23)cc1 is ___
Resp: active

Req: Fill in: this test's call for COc1ncnc(C2CC2)c1-c1ncc2cnn(Cc3ccc(-c4nc(C(F)(F)F)cn4C(C)C)cc3)c2n1 + Cc1cnc(CNC(=O)c2c(=O)c3ccc(N4CCCN(C)CC4)nc3n3c2sc2ccccc23)cn1 is ___
Resp: inactive

Req: Fill in: this test's call for C=CCn1c(=O)c2cnc(Nc3ccc(N4CCN(C)CC4)cc3)nc2n1-c1cccc(C(C)(C)O)n1 + Cc1[nH]c2ccc(F)cc2c1-c1nc2c3cccnc3c3ncccc3c2[nH]1 is ___
Resp: active

Req: Fill in: this test's call for CC1COCCN1c1cc(C2(O)CC3CCC(C2)O3)c2cnn(-c3ccn[nH]3)c2n1 (stereo unspecified) + Cc1cnc(CNC(=O)c2c(=O)c3ccc(N4CCCN(C)CC4)nc3n3c2sc2ccccc23)cn1 is ___
Resp: active
